# Experimental System: SARS-CoV-2 spike protein receptor binding domain (RBD2) (SARS-CoV-2, UniProt P0DTC2 319-537)
# Assay Comment: SPR sandwich binning, ligand NN54
Some binders, each annotated with its measured normalized analyte binding to RBD2 held by the immobilized ligand.
Endpoint Name: normalized analyte binding to RBD2 held by the immobilized ligand

- Binder: "G07 IgG1 (antibody, V domains shown) VH: QVQLVQSGAEVKKPGESLKISCKGSGYSFTSYWIGWVRQMPGKGLEWMGIIYPGDSDIRYSPSFQGQVTISADKSFSSAYLQWSSLKASDTAMYYCARLGATGAFDIWGQGTTVTVSS VL: QSVLIQPPSASGTPGQRVTISCSGSNSNFGSNSVSWYQQRPGTAPKLLIEGNNQRPSGVPERFSGSKSGTSASLAISGLQSEDEAEYSCASWDDSLNAFVFGPGTKLTVL"
  Numeric Value: 1.73
- Binder: "F07 IgG1 (antibody, V domains shown) VH: QVQLVQSGAEVKKPGSSVRVSCKVSGYTFTGYYMHWVRQAPGQGLEWMGIINPSGGSTSYAQKFQGRVTMTRDTSTSTVYMELSSLRSEDTAVYYCARVRVGASDAFDIWGQGTMVTVSS VL: SYVLTQPPSVSVAPGQTARITCGGNNIGSKSVHWYQQKPGQAPVLVVYDDSDRPSGIPERFSGSNSGNTATLIISRVEAGDEADYYCQVWDSSSVHYVFGTGTKLTVL"
  Numeric Value: 2.34
- Binder: "B04 IgG1 (antibody, V domains shown) VH: QVQLVESGAEVKKPGASVKVSCKASGYTFTRYYMHWVRQAPGQGLEWMGIINPSGGTTSYAQKFQGRVTMTRDTSTSTVYMELSSLRSEDTAVYYCARSFGELTSFDYWGQGTLVTVSS VL: SYVLTQPPSVSVAPGKTARITCGGNNIGIRSVHWYQQKPGQAPVLVIYYDSDRPSGIPERFSGSKSGNTATLTISRVEAGDEADYYCQVWDSSSDHPVFGGGTKLTVL"
  Numeric Value: 2.5
- Binder: "S01 IgG1 (antibody, V domains shown, also called 501) VH: QVQLVESGGGLVKPGGSLRLSCAASGFTVGSNYMSWVRQAPGKGLEWVSVIYSGGSTYYADSVKGRFTISRDNSKNTLYLQMNSLRAEDTAVYYCARGSSGAWYFDLWGRGTLVTVSS VL: EIVMTQSPSSLSASVGDSVTITCQASQDISNYLNWYQQKPGKAPKLLIYDASNLETGVPSRFSGGGSGTDFTLTITSLQPEDIATYYCQQYDNFPPTFGPGTKVDIK"
  Numeric Value: 1.64
- Binder: "E01 IgG1 (antibody, V domains shown, also called E1) VH: QVQLQQWGAGLLKPSETLSLKCAVYGGSFSGYYWGWIRQSTGKGLEWIGEINRSGSTNYNPSLKSRVTISVDTSKNQFSLKLSSVTAADTAVYYCARGGARYYYGSGSYRSTPRPYYFDYWGQGTLVTVSS VL: SYELTQPPSVSVAPGETARITCGGDNIGRRHVHWYQQKPGQAPVLVIYDDSDRPSGIPDRFSGSNSGNTATLTIGRVEAGDEADYYCQVWGSSNDPHVFGTGTKLTVL"
  Numeric Value: 2.78
